Listing of recorded IC50 by entry.
- EXPERIMENTAL_PROTOCOL: Inhibition of Trypanosoma cruzi glucokinase using D-glucose as substrate in presence of ATP and […] measured for every 30 secs for 10 mins by resazurin dye based G6PDH-diaphorase coupled fluorescence assay relative to control
MEASURED_ENDPOINT: IC50 (µM)

>>> value_observed("COc1ccc(S(=O)(=O)Nc2cccc(Br)c2)c(Cl)c1Cl")
5.3
>>> value_observed("Cc1cc2c(c(O)c1-c1c(C)cc3c(c1O)/C(=C/Nc1cccc4c(N)cccc14)C(=O)C(O)=C3C(C)C)/C(=C/Nc1cccc3c(N)cccc13)C(=O)C(O)=C2C(C)C")
16.5
>>> value_observed("O=C1NC(=O)C(=Cc2ccc3c(c2)OCO3)C(=O)N1")
8.7
>>> value_observed("O=C1C(=Cc2ccco2)C(=O)N(c2ccccc2)C(=O)N1c1ccccc1")
0.3
>>> value_observed("Cc1nn(-c2ccccc2)c2c1C(c1ccc(F)cc1)C(C#N)=C(N)O2 (configuration not stated)")
17.1
>>> value_observed("CCOc1ccc([C@@H]2Oc3ccc(Br)cc3C=C2[N+](=O)[O-])cc1OC")
6.1
>>> value_observed("O=C1NC(=O)C(=Cc2ccc(O)c(O)c2)C(=O)N1")
3.1
